molecular target: mu receptor (Rattus norvegicus); construct: The brain tissue, rat whole brain minus cerebellum for mu was homogenized; from tissue; host or cells: brain minus cerebellum of male Sprague Dawley rats, homogenate fraction; experiment: Naloxone [3H] opioid receptor binding assay (mu receptor); parameters: species or system rat (male Sprague Dawley); settings: 20 min, pH 7.4, read-out: % displacement at 10 nM
Sequence (P33535 whole entry): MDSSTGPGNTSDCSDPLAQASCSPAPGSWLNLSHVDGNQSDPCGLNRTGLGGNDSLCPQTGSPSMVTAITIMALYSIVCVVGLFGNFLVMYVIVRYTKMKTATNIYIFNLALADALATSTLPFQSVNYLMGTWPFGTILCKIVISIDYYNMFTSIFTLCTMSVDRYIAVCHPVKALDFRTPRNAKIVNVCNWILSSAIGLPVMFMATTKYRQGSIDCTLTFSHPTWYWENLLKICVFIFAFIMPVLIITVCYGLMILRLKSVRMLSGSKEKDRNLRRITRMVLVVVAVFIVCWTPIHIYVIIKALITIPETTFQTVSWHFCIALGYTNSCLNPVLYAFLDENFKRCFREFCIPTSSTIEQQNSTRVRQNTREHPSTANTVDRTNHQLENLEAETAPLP
Where a name gives a salt, the structure may show the parent alone.
Everything with inhibition at 0.01 µM lower than 70% is -1; everything else, including exactly 70%, is 1.

stdin: In plain terms: is recorded inhibition at 0.01 µM at least 70% for C[C@H]1CN(CCN(C(=O)CCC(=O)O)C2CCCCC2)CC[C@@]1(C)c1cccc(O)c1 (relative stereo) [Example 22, monohydrate] ?
stdout: -1

stdin: In plain terms: is recorded inhibition at 0.01 µM at least 70% for CCOC(=O)CC(=O)N[C@H](Cc1ccccc1)CN1CC[C@](C)(c2cccc(O)c2)[C@H](C)C1 [Example 12, hydrochloride] ?
stdout: -1

stdin: In plain terms: is recorded inhibition at 0.01 µM at least 70% for C[C@H]1CN(CCN(C(=O)CCCC(=O)O)C2CCCCC2)CC[C@@]1(C)c1cccc(O)c1 (relative stereo) [Example 23, monohydrate] ?
stdout: 1

stdin: In plain terms: is recorded inhibition at 0.01 µM at least 70% for C[C@H]1CN(CCCN(C(=O)CCCC(N)=O)C2CCCCC2)CC[C@@]1(C)c1cccc(O)c1 (relative stereo) [Example 37, monohydrochloride monohydrate] ?
stdout: 1

stdin: In plain terms: is recorded inhibition at 0.01 µM at least 70% for C[C@H]1CN(C[C@H](CC2CCCCC2)NC(=O)CCCC(=O)OCC(N)=O)CC[C@@]1(C)c1cccc(O)c1 ?
stdout: 1

stdin: In plain terms: is recorded inhibition at 0.01 µM at least 70% for CCNC(=O)COC(=O)CCCC(=O)N[C@@H](CC1CCCCC1)CN1CC[C@](C)(c2cccc(O)c2)[C@H](C)C1 ?
stdout: -1

stdin: In plain terms: is recorded inhibition at 0.01 µM at least 70% for C[C@H]1CN(CCCN(C(=O)CCCC(=O)O)C2CCCCC2)CC[C@@]1(C)c1cccc(O)c1 (relative stereo) ?
stdout: 1

stdin: In plain terms: is recorded inhibition at 0.01 µM at least 70% for C[C@@H]1CN(C[C@@H](CC2CCCCC2)NC(=O)CCCC(=O)O)CC[C@]1(C)c1cccc(O)c1 [Example 48D] ?
stdout: -1

stdin: In plain terms: is recorded inhibition at 0.01 µM at least 70% for C[C@@H]1CN(C[C@H](CC2CCCCC2)NC(=O)CCCC(=O)O)CC[C@]1(C)c1cccc(O)c1 [Example 47D] ?
stdout: 1
